Experimental protocol: amyloid nucleation score (Sup35N fusion, yeast selection) (log enrichment); library NNK3; higher = more nucleation; inactive = no reads after selection;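 also: zero at mode of non-aggregating sequences after 7 days selection at 30°C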
Metric name: amyloid nucleation score

Worked cases, amyloid nucleation score given:
Substance	Result
HNRRKR	-0.16
RWSLYLGRSRMKLRATVHSF	inactive
ANSDCLFARFDRLFDVSVED	-0.295
VLLARIDAVFITVLR	1.25

Prompt line: Respond only with amyloid nucleation score recorded for CYSNTLELNDARNCFFNWVR
Response line: inactive

Prompt line: Respond only with amyloid nucleation score recorded for CTRHLQMFVNIF
Response line: 2.23

Prompt line: Respond only with amyloid nucleation score recorded for SCVDLPWQMRLRHRKCQFDG
Response line: inactive

Prompt line: Respond only with amyloid nucleation score recorded for YIGRRNMPNFSSMWMWSQGK
Response line: inactive

Prompt line: Respond only with amyloid nucleation score recorded for ILSSKSTNENVSYFLLKM
Response line: 0.794

Prompt line: Respond only with amyloid nucleation score recorded for NWFSSQS
Response line: inactive

Prompt line: Respond only with amyloid nucleation score recorded for SERWGIESHNRNSNMRKTGW
Response line: inactive

Prompt line: Respond only with amyloid nucleation score recorded for LVLRGKRSDV
Response line: inactive

Prompt line: Respond only with amyloid nucleation score recorded for NVRVFFVSYVL
Response line: 0.885

Prompt line: Respond only with amyloid nucleation score recorded for VLLSRMIYALPGYSVL
Response line: 1.93

Prompt line: Respond only with amyloid nucleation score recorded for RVYFKTGFPMVLLSKKRGSE
Response line: 0.952

Prompt line: Respond only with amyloid nucleation score recorded for NSCQGE
Response line: inactive

Prompt line: Respond only with amyloid nucleation score recorded for SRCFWQSLEVTVILGSCINT
Response line: 1.64

Prompt line: Respond only with amyloid nucleation score recorded for ASARRCVSVVLIHTAKIHRN
Response line: inactive

Prompt line: Respond only with amyloid nucleation score recorded for IFNLMFYFVVRNE
Response line: 3.01

Prompt line: Respond only with amyloid nucleation score recorded for KQKWIPYSLCFFTPVR
Response line: inactive

Prompt line: Respond only with amyloid nucleation score recorded for LPPFCGSGCLSGLLRSKTRR
Response line: 0.617
